Every entry's value here was drawn from PubChem BioAssay (NCI).

Test system: NCI-H23 lung
protocol.notes: NCI tumour cell line growth inhibition, 48 h
property.label: TGI (µM)
State just the number; it will be interpreted in µM.

Task item: Entry "COc1ccc2nc3cc(Cl)ccc3c(NCCNC(=O)Cn3c(=O)n(C)c(=O)c4c3nc3c(c(=O)n(C)c(=O)n3C)[n+]4[O-])c2c1" has what TGI?
Reply: 56

Task item: Need TGI, item "CCOC(=O)Nc1ccc2c(c1)/C(=N\NC(N)=S)c1ccccc1-2"
Reply: 12.6

====

System: MDA-MB-435
protocol.notes: NCI tumour cell line growth inhibition, 48 h
Could you please report measured TGI for the items listed next?
Enter your answer as a number in µM; do not include the unit.

Task item: What value of TGI has been recorded for this entry: "COc1ncnc2c(-c3ccccc3)cn(COCc3ccccc3)c12"
Reply: 6.13

Task item: Form field: reported TGI of "CCOC(=O)Nc1ccc2c(c1)/C(=N\NC(N)=S)c1ccccc1-2"
Reply: 18.3

====

System: DU-145 prostate
protocol.notes: NCI tumour cell line growth inhibition, 48 h; in the data active = GI50 below about 0.43 µM; inactive = the rest
Bench note: report the call from yes (active), no (inactive)

Task item: # lookup: test call for "CCOC(=O)c1c(C)nc2c(c1N)CC(=O)N2Cc1ccc(OC)cc1"
Reply: no

Task item: Assay result, entry "CCOC(=O)/C(C=Nc1ccc(-c2nc3ccccc3[nH]2)cc1)=C(/C)O" — outcome?
Reply: no

Task item: // return assay outcome for "CCN(Cc1cc(Nc2nc(C)cn3c(-c4cn[nH]c4)cnc23)sn1)C(C)(C)CO"
Reply: yes

Task item: Call for entry "COc1ccc(C(=S)N2CCN(c3cccc(C)c3)CC2)cc1OC" :
Reply: no

Task item: Could you check what this test reported for "CCN(Cc1ccc(Cl)cc1)c1ccc(CO)c(Cl)c1" ?
Reply: no

Task item: Recorded call for "CCCCCCCCNc1cc2c3c(c1)CCCN3CCC2" ?
Reply: no

====

Test system: NCI-H522 lung
protocol.notes: NCI tumour cell line growth inhibition, 48 h
Hi there, I'd appreciate the recorded TGI for every entry that follows.
Numbers only; they are read as µM.

Task item: Return reported TGI; argument: COc1ccc(C23C(=O)c4ccccc4N2O[C@H]2C(=O)N(c4ccccc4)C(=O)[C@H]23)cc1 (some centres not stated)
Reply: 87.3

Task item: Which TGI is reported for this compound? "OCCOCCN1CCN(CCCN2c3ccccc3Sc3ccc(C(F)(F)F)cc32)CC1"
Reply: 28.2

Task item: Find the recorded TGI belonging to COc1ccc(/C=C2\CCC(CNc3ccc(S(N)(=O)=O)cc3)C2=O)cc1 (configuration not stated) and report it.
Reply: 10.6

Task item: I'd like to know its TGI. The compound in question is "C[C@@]1(O)C[C@@H](N2C(=O)O[C@@H](c3ccccc3)[C@H]2c2ccccc2)[C@@H]1COCc1ccccc1"
Reply: 38.3

Task item: Entry "C=C1C(=O)O[C@@H]2C[C@@H](C)[C@@H]3C=CC(=O)[C@@]3(C)[C@@H](O)[C@H]12" has what TGI?
Reply: 0.663

Task item: Param item = CCN1CCC(O)(c2ccc(Oc3ccccc3)cc2)C(C(=O)c2ccc(Oc3ccccc3)cc2)C1 (configuration not stated) ; retrieve measured TGI.
Reply: 43.9

Task item: # input compound: "COC12C=C/C(=C(/C(=O)OCc3cncnc3)C(=O)CCCCCCCCC3(OC)C=C/C(=C(/C(=O)OCc4cncnc4)C(=O)CCCCCCCC1)O3)O2" ; wanted: its TGI
Reply: 0.408
